Assay: in vitro
Details: human, CC50, uninfected A549 cells, CellTiter-Glo
property label: CC50

The cases that follow already have their CC50 on record.
>>> measurement("O=C1c2c(O)c(=O)ccn2N2CN1C/C=C\\COc1ccccc1[C@H]2c1ccc(F)c(F)c1 (single isomer, unassigned) [Compound 45A]")
"> 2000 nM"
>>> measurement("CC[C@H]1/C=C/COc2c(F)cccc2[C@H](c2ccccn2)N2CN1C(=O)c1c(O)c(=O)ccn12 (single isomer, unassigned) [Compound 154BB]")
"> 100 nM"
>>> measurement("CC[C@@H]1/C=C/COc2cc(Cl)ccc2[C@H](c2ccccc2)N2CN1C(=O)c1c(O)c(=O)ccn12 (single isomer, unassigned) [Compound 97BA]")
"> 1000 nM"
>>> measurement("O=C1c2c(O)c(=O)ccn2N2CN1C/C=C\\COc1c(ccc(Cl)c1Cl)[C@@H]2c1ccccc1 (single isomer, unassigned) [Compound 103B]")
"> 200 nM"
>>> measurement("O=C1c2c(O)c(=O)ccn2N2CN1C1(/C=C/COc3c(F)cccc3[C@H]2c2ccccc2)CCC1 (single isomer, unassigned) [Compound 145A]")
"> 100 nM"

Inquiry: Give a short answer stating reported CC50 for O=C1c2c(O)c(=O)ccn2N2CN1C1(/C=C/COc3c(ccc(F)c3F)[C@@H]2c2ccccn2)CCC1 (single isomer, unassigned) [Compound 172B] .
Reply text: > 100 nM

Inquiry: Give a short answer stating reported CC50 for CC[C@@H]1/C=C/COc2c(ccc(Cl)c2Cl)C(c2ccccc2)N2CN1C(=O)c1c(O)c(=O)ccn12 (single isomer, unassigned) [Compound 121AA] .
Reply text: > 200 nM

Inquiry: Give a short answer stating reported CC50 for O=C1c2c(O)c(=O)ccn2N2CN1CC[C@@H]1C[C@H]1COc1cccc3c1[C@H]2c1ccccc1SC3 (single isomer, unassigned) [Compound 131BA] .
Reply text: > 200 nM

Inquiry: Give a short answer stating reported CC50 for CC[C@H]1/C=C/COc2c(ccc(F)c2F)[C@H](c2ccccc2)N2CN1C(=O)c1c(O)c(=O)ccn12 [Compound 101BA] .
Reply text: > 200 nM

Inquiry: Give a short answer stating reported CC50 for O=C1c2c(O)c(=O)ccn2N2CN1C/C=C\COc1ccccc1[C@H]2c1ccc(F)cc1 (single isomer, unassigned) [Compound 47A] .
Reply text: > 2000 nM

Inquiry: Give a short answer stating reported CC50 for CC(C)[C@@H]1/C=C/COc2cc(F)c(F)c3c2[C@H](c2ccccc2SC3)N2CN1C(=O)c1c(O)c(=O)ccn12 (single isomer, unassigned) [Compound 169BB] .
Reply text: > 100 nM

Inquiry: Give a short answer stating reported CC50 for O=C1c2c(O)c(=O)ccn2N2CN1C1(/C=C/COc3ccccc3[C@@H]2c2ccccc2)CC1 [Compound 79A] .
Reply text: > 1000 nM

Inquiry: Give a short answer stating reported CC50 for O=C1c2c(O)c(=O)ccn2N2CN1C/C=C\COc1cccc3c1[C@@H]2c1ccccc1OC3 (single isomer, unassigned) [Compound 53B] .
Reply text: > 2000 nM

Inquiry: Give a short answer stating reported CC50 for CC[C@H]1/C=C/COc2cc(Cl)ccc2[C@H](c2ccccc2)N2CN1C(=O)c1c(O)c(=O)ccn12 (single isomer, unassigned) [Compound 97BB] .
Reply text: > 1000 nM

Inquiry: Give a short answer stating reported CC50 for C[C@H]1N2C/C=C/COc3c(F)cccc3[C@H](c3ccccc3)N1n1ccc(=O)c(O)c1C2=O (single isomer, unassigned) [Compound 91B] .
Reply text: > 1000 nM
